Attribution: patent US7956069B2

# tested-target: hM1 (human Muscarinic receptor subtype 1) (Homo sapiens, UniProt P11229)
# Sequence (P11229 whole entry): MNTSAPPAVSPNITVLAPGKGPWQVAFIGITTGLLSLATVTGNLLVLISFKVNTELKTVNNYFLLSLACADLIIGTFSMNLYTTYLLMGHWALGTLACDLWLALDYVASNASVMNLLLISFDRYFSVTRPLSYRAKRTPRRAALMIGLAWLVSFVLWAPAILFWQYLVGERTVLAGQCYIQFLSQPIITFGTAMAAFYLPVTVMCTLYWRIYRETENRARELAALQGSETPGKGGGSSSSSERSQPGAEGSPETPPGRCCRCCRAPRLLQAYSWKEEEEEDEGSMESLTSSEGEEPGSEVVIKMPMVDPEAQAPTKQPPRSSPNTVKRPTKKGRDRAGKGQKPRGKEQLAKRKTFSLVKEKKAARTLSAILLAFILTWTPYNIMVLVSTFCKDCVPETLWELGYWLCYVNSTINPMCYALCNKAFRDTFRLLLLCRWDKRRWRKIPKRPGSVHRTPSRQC
# run-description: Human M1 calcium mobilization FLIPR assay
# condition-context: CHO cells expressing hM1, Ca2+ release
# Description: Biological Evaluation Human M1, Rat M1, Human M3 and Human M5 Calcium Mobilization FLIPR™ Assay The compound activity in the present invention (EC50 or IC50) was measured using a 384 plate-based imaging assay that monitors drug induced intracellular Ca^2+ release in whole cells. […] Inhibition of hM3 and hM5 by compounds was determined by the decrease in fluorescent signal in response to 20 nM carbachol activation. […]
Consider the cut-off 9 nM. If the recorded EC50 is strictly smaller, the label is condition met; if not, the label is condition not met.

Answered cases to consult:
[in] Decide: EC50 of `O=C(C1CCCC1)N1CCC(N2CCC(N3C(=O)N[C@@H]4CCCC[C@@H]43)CC2)CC1` strictly below 9 nM?
[out] condition not met

[in] Given `CCOC(=O)N1CCC(N2CCC(N3C(=O)N[C@H]4CCCC[C@@H]43)CC2)CC1` , is recorded EC50 strictly lower than 9 nM?
[out] condition met

New cases:
[in] API: query returns whether the molecule falls strictly under 9 nM in EC50. Query: `O=C(C1CC1)N1CCC(N2CCC(N3C(=O)N[C@@H]4CCCC[C@H]43)CC2)CC1`
[out] condition not met

[in] EC50 strictly < 9 nM for this molecule? `COc1ccccc1C(=O)N1CCC(N2CCC(N3C(=O)N[C@@H]4CCCC[C@H]43)CC2)CC1`
[out] condition not met

[in] Is EC50 of O=C(C1CC1(F)F)N1CCC(N2CCC(N3C(=O)N[C@H]4CCCC[C@@H]43)CC2)CC1 (stereo partly shown) strictly below 9 nM?
[out] condition not met

[in] Here's an entry: `CN1C(=O)N(C2CCN(C3CCN(C(=O)C4CC4)CC3)CC2)[C@H]2CCCC[C@@H]21` . Is its EC50 below 9 nM?
[out] condition not met

[in] Does the reported EC50 of `CC(C)OC(=O)N1CCC(N2CCC(N3C(=O)C[C@H]4CCCC[C@@H]43)CC2)CC1` stay below 9 nM?
[out] condition not met

[in] hey, is EC50 for `O=C(c1ccccc1)N1CCC(N2CCC(N3C(=O)N[C@@H]4CCCC[C@H]43)CC2)CC1` lower than 9 nM or not?
[out] condition not met

[in] Could you please tell me whether EC50 recorded for `Cc1ccccc1C(=O)N1CCC(N2CCC(N3C(=O)C[C@H]4CCCC[C@@H]43)CC2)CC1` is less than 9 nM?
[out] condition not met

[in] API: query returns whether the molecule falls strictly under 9 nM in EC50. Query: `CC(C)OC(=O)N1CCC(N2CCC(N3C(=O)N[C@@H]4CCCC[C@@H]43)CC2)CC1`
[out] condition not met

[in] For `O=C(OCCF)N1CCC(N2CCC(N3C(=O)N[C@H]4CCCC[C@@H]43)CC2)CC1` , is the recorded EC50 below the cut-off of 9 nM?
[out] condition met

[in] Please indicate whether the reported EC50 of `CCOC(=O)N1CC[C@H](N2CCC(N3C(=O)N[C@H]4CCCC[C@@H]43)CC2)C1` is strictly below 9 nM.
[out] condition met

[in] Consider the molecule CCNC(=O)N1CCC(N2CCC(N3C(=O)N[C@@H]4CCCC[C@H]43)CC2)C1 (mixture of isomers) . Is its EC50 strictly less than 9 nM?
[out] condition not met

[in] # TODO verify EC50 < 9 nM strictly for this molecule: CCOC(=O)N1CCC(N2CCC(N3C(=O)C[C@H]4CCCC[C@@H]43)CC2)C1 (single isomer, unassigned)
[out] condition not met

[in] State whether 9 nM exceeds EC50 recorded for `O=C(C1CCCC1)N1CCC(N2CCC(N3C(=O)N[C@H]4CCCC[C@@H]43)CC2)CC1` .
[out] condition not met

[in] API: query returns whether the molecule falls strictly under 9 nM in EC50. Query: `CC(C)OC(=O)N1CCC(N2CCC(N3C(=O)N[C@H]4CCCC[C@@H]43)CC2)CC1`
[out] condition met

[in] Quick check: does `CCOC(=O)N1CCC(N2CCC(N3C(=O)N(C(C)C)[C@H]4CCCC[C@@H]43)CC2)CC1` have EC50 under 9 nM?
[out] condition not met

[in] Hi there! Is EC50 for `O=C1CCCN1CCC(=O)N1CCC(N2CCC(N3C(=O)N[C@H]4CCCC[C@@H]43)CC2)CC1` below 9 nM, do you know?
[out] condition met

====

# tested-target: hM3 (human Muscarinic receptor subtype 3) (Homo sapiens)
# Sequence (P20309 whole entry): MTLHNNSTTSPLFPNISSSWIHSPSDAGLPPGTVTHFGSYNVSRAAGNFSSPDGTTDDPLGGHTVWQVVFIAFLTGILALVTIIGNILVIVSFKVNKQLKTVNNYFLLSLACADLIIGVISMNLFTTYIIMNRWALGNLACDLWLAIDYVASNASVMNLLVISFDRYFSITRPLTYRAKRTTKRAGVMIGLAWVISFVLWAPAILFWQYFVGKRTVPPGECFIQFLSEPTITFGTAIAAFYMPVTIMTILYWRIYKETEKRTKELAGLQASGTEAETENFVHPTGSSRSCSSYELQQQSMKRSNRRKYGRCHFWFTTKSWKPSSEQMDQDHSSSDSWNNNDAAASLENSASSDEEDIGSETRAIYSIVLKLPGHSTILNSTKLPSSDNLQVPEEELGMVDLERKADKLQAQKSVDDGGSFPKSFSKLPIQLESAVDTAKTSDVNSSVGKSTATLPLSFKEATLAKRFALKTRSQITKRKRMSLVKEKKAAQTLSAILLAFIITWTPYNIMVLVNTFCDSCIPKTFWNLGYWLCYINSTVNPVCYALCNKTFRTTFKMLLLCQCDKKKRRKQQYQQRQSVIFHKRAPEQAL
# run-description: Human M3 calcium mobilization FLIPR assay
# condition-context: CHO cells expressing hM3, Ca2+ release
pEC50: −log10 of the molar value.
Recorded measurements of pEC50, one per entry

So for `CC(C)OC(=O)N1CCC(N2CCC(N3C(=O)C[C@H]4CCCC[C@@H]43)CC2)CC1` , the logged pEC50 turned out to be < 4.40

So for `CCOC(=O)N1CCC(N2CCC(N3C(=O)N[C@H]4CCCC[C@@H]43)CC2)CC1` , the logged pEC50 turned out to be 5.60

---
pEC50 for `O=C(C1CCCC1)N1CCC(N2CCC(N3C(=O)N[C@H]4CCCC[C@@H]43)CC2)CC1` is < 4.40

So, `O=C1CCCN1CCC(=O)N1CCC(N2CCC(N3C(=O)N[C@H]4CCCC[C@@H]43)CC2)CC1` ? Its pEC50 was < 4.40

Lab book: pEC50 of `CC(C)OC(=O)N1CCC(N2CCC(N3C(=O)N[C@H]4CCCC[C@@H]43)CC2)CC1` noted as < 4.40

The molecule listed as `O=C(C1CC1)N1CCC(N2CCC(N3C(=O)N[C@@H]4CCCC[C@H]43)CC2)CC1` has a reported pEC50 of < 4.40

====

# tested-target: cloned human M2 receptor (Homo sapiens, UniProt P08172)
# Sequence (P08172 whole entry): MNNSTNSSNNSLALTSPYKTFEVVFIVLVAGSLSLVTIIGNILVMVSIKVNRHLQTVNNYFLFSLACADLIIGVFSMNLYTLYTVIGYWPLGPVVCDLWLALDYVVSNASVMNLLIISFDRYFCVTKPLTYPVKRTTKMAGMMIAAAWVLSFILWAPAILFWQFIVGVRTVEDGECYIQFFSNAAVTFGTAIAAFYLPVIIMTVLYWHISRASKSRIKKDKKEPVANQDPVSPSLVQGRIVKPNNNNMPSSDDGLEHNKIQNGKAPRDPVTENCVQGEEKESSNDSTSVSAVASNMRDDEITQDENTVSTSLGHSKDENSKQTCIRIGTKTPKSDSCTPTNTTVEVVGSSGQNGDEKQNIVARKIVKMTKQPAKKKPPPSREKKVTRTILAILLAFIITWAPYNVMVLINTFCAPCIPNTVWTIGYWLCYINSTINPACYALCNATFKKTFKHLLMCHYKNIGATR
# run-description: hM2 receptor GTPγS binding
# condition-context: CHO membranes, [35S]GTPγS binding
reported-metric: EC50

Past entries and their recorded results:
Entry `O=C(C1CC1)N1CCC(N2CCC(N3C(=O)N[C@@H]4CCCC[C@H]43)CC2)CC1` — recorded EC50 = > 30 µM

Reported EC50 for `COc1ccccc1C(=O)N1CCC(N2CCC(N3C(=O)N[C@@H]4CCCC[C@H]43)CC2)CC1` was > 30 µM

We next turn to a different molecule, shown below.
Record summary for `CN1C(=O)N(C2CCN(C3CCN(C(=O)C4CC4)CC3)CC2)[C@H]2CCCC[C@@H]21` : reported EC50 = > 30 µM
